experimentalTarget: UniProt P25103
Sequence (P25103 whole entry): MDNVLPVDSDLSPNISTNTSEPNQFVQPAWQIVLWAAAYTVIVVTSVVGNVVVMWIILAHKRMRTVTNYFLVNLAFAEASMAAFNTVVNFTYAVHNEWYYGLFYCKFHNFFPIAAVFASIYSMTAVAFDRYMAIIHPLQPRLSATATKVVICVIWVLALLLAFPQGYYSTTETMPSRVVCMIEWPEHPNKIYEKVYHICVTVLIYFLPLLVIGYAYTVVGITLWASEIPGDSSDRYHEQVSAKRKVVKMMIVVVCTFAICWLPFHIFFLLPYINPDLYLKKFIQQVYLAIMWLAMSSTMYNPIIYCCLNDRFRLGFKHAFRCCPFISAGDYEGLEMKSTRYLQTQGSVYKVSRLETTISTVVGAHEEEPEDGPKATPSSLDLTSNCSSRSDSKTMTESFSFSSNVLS
experimentNotes: Binding affinity against recombinant human tachykinin receptor 1 in CHO cells using [3H]-Sar SP as radioligand
property: pKi
Notebook: values listed as pKi are -log10 of the concentration (mol/L).

Determine its reported pKi: CO/N=C(\CN(C)C(=O)c1cc(Cl)cc(Cl)c1)[C@H](CCN1CCC(N2CCCN(CC(=O)OCc3ccccc3)C2=O)CC1)c1ccc(Cl)c(Cl)c1
9.00

Continuing:
Determine its reported pKi: CCN(C/C(=N\OC)[C@H](CCN1CCC(n2c(=O)n(CC(=O)O)c3ccccc32)CC1)c1ccc(Cl)c(Cl)c1)C(=O)c1cc(Cl)cc(Cl)c1
8.62

Determine its reported pKi: CO/N=C(\CN(C)C(=O)c1cc(Cl)cc(Cl)c1)[C@H](CCN1CCC(N2CCCN(N3CCOCC3)C2=O)CC1)c1ccc(Cl)c(Cl)c1
9.10
